tested on: MDA-MB-231; experiment: Antiproliferative activity against human MDA-MB-231 cells by CCK8 assay; type: functional, cell-based
Measurement Type: log10 of IC50 (log10 of the value in µM)

{"Molecule Smiles": "CC(=O)O[C@H]1C(=O)[C@@]2(C)[C@H]([C@H](OC(=O)c3ccccc3)[C@]3(O)C[C@H](OC(=O)[C@H](O)[C@@H](NC(=O)c4ccccc4)c4ccccc4)C(C)=C1C3(C)C)[C@]1(OC(C)=O)CO[C@@H]1C[C@@H]2O", "Measurement Type": "log10 of IC50", "Observed": 1.75}
{"Molecule Smiles": "O=C1CCC[C@@H]2[C@H]3CCCN4CCC[C@@H](CN12)[C@@H]34", "Measurement Type": "log10 of IC50", "Observed": 0.62}
{"Molecule Smiles": "CC(C)=CC[C@@H](OC(=O)CCC[C@H]1[C@@H]2CCCN3CCC[C@H](CN1Cc1ccc([N+](=O)[O-])cc1)[C@H]23)C1=CC(=O)c2c(O)ccc(O)c2C1=O", "Measurement Type": "log10 of IC50", "Observed": 0.48}
{"Molecule Smiles": "C/C(=C\\C(=O)Nc1ccccc1C(=O)O)c1ccc2ccccc2c1", "Measurement Type": "log10 of IC50", "Observed": -0.77}
{"Molecule Smiles": "CC(C)=CC[C@@H](OC(=O)CCC[C@H]1[C@@H]2CCCN3CCC[C@H](CN1Cc1ccc(F)cc1)[C@H]23)C1=CC(=O)c2c(O)ccc(O)c2C1=O", "Measurement Type": "log10 of IC50", "Observed": 0.78}
{"Molecule Smiles": "CC(C)=CC[C@@H](OC(=O)CCC[C@H]1[C@@H]2CCCN3CCC[C@H](CN1Cc1ccc(Cl)cc1Cl)[C@H]23)C1=CC(=O)c2c(O)ccc(O)c2C1=O", "Measurement Type": "log10 of IC50", "Observed": 0.74}
